biological target: Corticosteroid-binding globulin (Homo sapiens) (UniProt P08185)
Sequence (P08185 whole entry): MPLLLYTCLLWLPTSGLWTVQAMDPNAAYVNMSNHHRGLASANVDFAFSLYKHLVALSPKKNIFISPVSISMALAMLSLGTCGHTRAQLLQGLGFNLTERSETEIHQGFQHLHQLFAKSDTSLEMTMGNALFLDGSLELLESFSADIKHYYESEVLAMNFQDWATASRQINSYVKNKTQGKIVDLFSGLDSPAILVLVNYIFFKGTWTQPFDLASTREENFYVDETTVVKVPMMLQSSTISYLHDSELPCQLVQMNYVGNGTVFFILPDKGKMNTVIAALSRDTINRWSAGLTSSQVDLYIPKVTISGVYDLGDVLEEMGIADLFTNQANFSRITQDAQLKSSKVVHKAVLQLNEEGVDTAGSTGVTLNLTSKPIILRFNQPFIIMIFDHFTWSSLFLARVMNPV
Kindly supply the reported Log K values for the records listed here.
Lab note: record the figure alone, no unit after it.

Consider the molecule `C[C@]12CCC(=O)C=C1CC[C@@H]1[C@@H]2C(=O)C[C@@]2(C)[C@H]1CC[C@]2(O)C(=O)CO` . State its measured Log K.
6.89

Consider the molecule `CC(=O)[C@@]1(O)CC[C@H]2[C@@H]3CCC4=CC(=O)CC[C@]4(C)[C@H]3CC[C@@]21C` . State its measured Log K.
7.74

Consider the molecule `C[C@]12CCC(=O)C=C1CC[C@@H]1[C@@H]2[C@@H](O)C[C@@]2(C)[C@H]1CC[C@]2(O)C(=O)CO` . State its measured Log K.
7.88

Consider the molecule `C[C@]12CC[C@H]3[C@@H](CCC4=CC(=O)CC[C@@]43C)[C@@H]1CC[C@@H]2O` . State its measured Log K.
6.72

Consider the molecule `CC(=O)[C@H]1CC[C@H]2[C@@H]3CCC4=CC(=O)CC[C@]4(C)[C@H]3CC[C@]12C` . State its measured Log K.
7.38

Consider the molecule `C[C@]12C=CC(=O)C=C1CC[C@@H]1[C@@H]2[C@@H](O)C[C@@]2(C)[C@H]1CC[C@]2(O)C(=O)CO` . State its measured Log K.
7.51

Consider the molecule `C[C@]12CCC(=O)C=C1CC[C@@H]1[C@@H]2CC[C@@]2(C)[C@H]1CC[C@]2(O)C(=O)CO` . State its measured Log K.
7.88

Consider the molecule `C[C@]12CC[C@H](O)CC1=CC[C@@H]1[C@@H]2CC[C@]2(C)C(=O)CC[C@@H]12` . State its measured Log K.
5

###

molecular target: UniProtKB P06199; test: Ability to dissociate radioligand [3H]NMS from muscarinic acetylcholine receptor M2 of porcine heart
quantity: EC50 (nM)
Provide only the numeric value, understood in nM.

Consider the compound `C[N+](C)(CCCCCCC[N+](C)(C)CCCN1C(=O)[C@H]2CC=CC[C@H]2C1=O)CCCN1C(=O)[C@H]2CC=CC[C@H]2C1=O` . State its measured EC50.
2200

Consider the compound `N#CCCN(CCCCCCN(CCC#N)CCCN1C(=O)c2ccccc2C1=O)CCCN1C(=O)c2ccccc2C1=O` . State its measured EC50.
740

Consider the compound `C[N+](C)(CCCCCC[N+](C)(C)CCCN1C(=O)c2cccnc2C1=O)CCCN1C(=O)c2ccccc2C1=O` . State its measured EC50.
2340

Consider the compound C[N+](C)(CCCCCC[N+](C)(C)CCCN1c2ccccc2C(=O)NC1c1ccccc1)CCCN1c2ccccc2C(=O)NC1c1ccccc1 (centres undefined) . State its measured EC50.
741

###

Target: UniProt P06199
Sequence (P06199 whole entry): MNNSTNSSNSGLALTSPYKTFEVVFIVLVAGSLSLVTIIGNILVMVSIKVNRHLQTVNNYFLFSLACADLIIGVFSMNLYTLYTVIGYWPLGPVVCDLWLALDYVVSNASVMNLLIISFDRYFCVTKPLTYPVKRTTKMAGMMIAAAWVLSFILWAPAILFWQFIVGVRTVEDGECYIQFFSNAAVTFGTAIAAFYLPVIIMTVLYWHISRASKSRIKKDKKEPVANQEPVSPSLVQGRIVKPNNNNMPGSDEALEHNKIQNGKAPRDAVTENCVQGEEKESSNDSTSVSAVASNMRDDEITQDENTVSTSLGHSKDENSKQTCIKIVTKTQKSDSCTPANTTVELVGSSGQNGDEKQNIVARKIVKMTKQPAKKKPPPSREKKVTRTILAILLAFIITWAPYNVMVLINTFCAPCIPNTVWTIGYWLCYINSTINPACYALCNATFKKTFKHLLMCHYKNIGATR
Experiment: Ability to dissociate radioligand [3H]NMS from muscarinic acetylcholine receptor M2 of porcine heart
pEC50: −log10 of the molar value.
Label Yes for high-side pEC50 (at or above 5) and No for low-side pEC50 (below it).

Form field: pEC50 at least 5? Entry: `C[N+](C)(CCCCCC[N+](C)(C)CCCN1C(=O)c2cccc3cccc(c23)C1=O)CCCN1C(=O)c2ccccc2C1=O`
Yes

Form field: pEC50 at least 5? Entry: `C[N+](C)(CCCCCC[N+](C)(C)CCCN1C(=O)CC2c3ccccc3C(C1=O)c1ccccc12)CCCN1C(=O)c2ccccc2C1=O`
Yes

Form field: pEC50 at least 5? Entry: `C[N+](C)(CCCCCCC[N+](C)(C)CCCN1C(=O)[C@H]2CCCC[C@H]2C1=O)CCCN1C(=O)[C@H]2CCCC[C@H]2C1=O`
Yes

Form field: pEC50 at least 5? Entry: `C[N+](C)(CCCCCCC[N+](C)(C)CCCN1C(=O)c2ccccc2C1=O)CCCN1C(=O)c2ccccc2C1=O`
Yes

Form field: pEC50 at least 5? Entry: COc1ccc(CCN(C)CCCC(C#N)(c2ccc(OC)c(OC)c2)C(C)C)cc1OC (configuration not stated)
No

Form field: pEC50 at least 5? Entry: `O=C1c2ccccc2C(=O)N1CCCN(CCCCCCN(CCCc1ccccc1)CCCN1C(=O)c2ccccc2C1=O)CCCc1ccccc1`
Yes

###

target: Muscarinic acetylcholine receptor M2 (Sus scrofa); assay: Ability to dissociate radioligand [3H]NMS from muscarinic acetylcholine receptor M2 of porcine heart
Kindly supply the reported EC50 values for the records listed here.
Put your answer as a value accompanied by its unit after it.

Print Muscarinic acetylcholine receptor M2 (Sus scrofa) EC50 for `C[N+](C)(CCCCCCC[N+](C)(C)CCCN1C(=O)CCC1=O)CCCN1C(=O)CCC1=O` .
151 µM

Print Muscarinic acetylcholine receptor M2 (Sus scrofa) EC50 for `CCCCCC[N+](C)(C)CCCN1C(=O)c2ccccc2C1=O` .
54 µM

Print Muscarinic acetylcholine receptor M2 (Sus scrofa) EC50 for `C[N+](C)(CCCCCCC[N+](C)(C)CCCN1C(=O)[C@@H]2CCCC[C@H]2C1=O)CCCN1C(=O)[C@H]2CCCC[C@@H]2C1=O` .
0.8 µM

Print Muscarinic acetylcholine receptor M2 (Sus scrofa) EC50 for `CCOC(=O)CCCCCC[N+](C)(C)CCCN1C(=O)c2ccccc2C1=O` .
111 µM

Print Muscarinic acetylcholine receptor M2 (Sus scrofa) EC50 for `O=C1c2ccccc2C(=O)N1CCCN(CCCCCCN(CCCN1C(=O)c2ccccc2C1=O)C1CCCCC1)C1CCCCC1` .
0.045 µM

Print Muscarinic acetylcholine receptor M2 (Sus scrofa) EC50 for `Cc1ccc2c(c1)C(=O)N(CCCN(CCCCCCN(CCCN1C(=O)c3ccc(C)cc3C1=O)C1CCCCC1)C1CCCCC1)C2=O` .
0.06 µM

Print Muscarinic acetylcholine receptor M2 (Sus scrofa) EC50 for `CC[N+](C)(C)CCCCCC[N+](C)(C)CCCN1C(=O)c2ccccc2C1=O` .
10 µM

Print Muscarinic acetylcholine receptor M2 (Sus scrofa) EC50 for `C[N+](C)(CCCCCCO)CCCN1C(=O)c2ccccc2C1=O` .
24 µM

Print Muscarinic acetylcholine receptor M2 (Sus scrofa) EC50 for `C[C@@H]1C(=O)N(CCC[N+](C)(C)CCCCCCC[N+](C)(C)CCCN2C(=O)[C@H](C)[C@@H](C)C2=O)C(=O)[C@H]1C` .
12.1 µM

Print Muscarinic acetylcholine receptor M2 (Sus scrofa) EC50 for CC1CC(=O)N(CCC[N+](C)(C)CCCCCCC[N+](C)(C)CCCN2C(=O)CC(C)C2=O)C1=O (stereo unspecified) .
32 µM

Print Muscarinic acetylcholine receptor M2 (Sus scrofa) EC50 for `C[N+](C)(CCCCCC[N+](C)(C)CCCN1C(=O)c2cc3ccccc3cc2C1=O)CCCN1C(=O)c2ccccc2C1=O` .
0.148 µM

###

For reference, Log K measured on Corticosteroid-binding globulin (Homo sapiens) (UniProt P08185):

Print Corticosteroid-binding globulin (Homo sapiens) (UniProt P08185) Log K for `C[C@]12CC[C@H]3[C@@H](CCC4=CC(=O)CC[C@@H]43)[C@@H]1CC[C@@H]2O` .
6.14

Print Corticosteroid-binding globulin (Homo sapiens) (UniProt P08185) Log K for `CC(=O)[C@H]1CC[C@H]2[C@@H]3CC=C4C[C@@H](O)CC[C@]4(C)[C@H]3CC[C@]12C` .
5.25

Print Corticosteroid-binding globulin (Homo sapiens) (UniProt P08185) Log K for `CC(=O)[C@H]1[C@H](C)C[C@H]2[C@@H]3CCC4=CC(=O)CC[C@]4(C)[C@H]3CC[C@@]21C` .
7.12

Print Corticosteroid-binding globulin (Homo sapiens) (UniProt P08185) Log K for `C[C@]12CCC(=O)C=C1CC[C@@H]1[C@@H]2CC[C@]2(C)C(=O)CC[C@@H]12` .
5.76

Print Corticosteroid-binding globulin (Homo sapiens) (UniProt P08185) Log K for `CC(=O)OCC(=O)[C@@]1(O)CC[C@H]2[C@@H]3CCC4=CC(=O)CC[C@]4(C)[C@H]3[C@@H](O)C[C@@]21C` .
7.55

Print Corticosteroid-binding globulin (Homo sapiens) (UniProt P08185) Log K for `C[C@]12CC[C@@H]3c4ccc(O)cc4CC[C@H]3[C@@H]1CC[C@@H]2O` .
5

Print Corticosteroid-binding globulin (Homo sapiens) (UniProt P08185) Log K for `C[C@]12C[C@@H](O)[C@H]3[C@@H](CCC4=CC(=O)CC[C@@]43C)[C@@H]1CC[C@@H]2C(=O)CO` .
7.2

Print Corticosteroid-binding globulin (Homo sapiens) (UniProt P08185) Log K for `C[C@]12CC[C@@H]3c4ccc(O)cc4CC[C@H]3[C@@H]1C[C@@H](O)[C@@H]2O` .
5

Print Corticosteroid-binding globulin (Homo sapiens) (UniProt P08185) Log K for `C[C@]12C[C@H](O)[C@H]3[C@@H](CCC4=CC(=O)CC[C@@]43C)[C@@H]1CC[C@@H]2C(=O)CO` .
7.88

Print Corticosteroid-binding globulin (Homo sapiens) (UniProt P08185) Log K for `C[C@]12CC[C@H](O)C[C@@H]1CC[C@@H]1[C@@H]2CC[C@]2(C)[C@@H](O)CC[C@@H]12` .
5

Print Corticosteroid-binding globulin (Homo sapiens) (UniProt P08185) Log K for `CC(=O)[C@@]1(O)[C@H](O)C[C@H]2[C@@H]3CCC4=CC(=O)CC[C@]4(C)[C@H]3CC[C@@]21C` .
6.25

Print Corticosteroid-binding globulin (Homo sapiens) (UniProt P08185) Log K for `CC(=O)[C@H]1CC[C@H]2[C@@H]3CCC4=CC(=O)CC[C@]4(C)[C@H]3C(=O)C[C@]12C` .
6.78

Print Corticosteroid-binding globulin (Homo sapiens) (UniProt P08185) Log K for `CC(=O)[C@H]1CC[C@H]2[C@@H]3CCC4=CC(=O)CC[C@@H]4[C@H]3CC[C@]12C` .
6.82

Print Corticosteroid-binding globulin (Homo sapiens) (UniProt P08185) Log K for `CC(=O)[C@@]1(O)CC[C@H]2[C@@H]3CC[C@@H]4C[C@H](O)CC[C@]4(C)[C@H]3CC[C@@]21C` .
5

Print Corticosteroid-binding globulin (Homo sapiens) (UniProt P08185) Log K for `C[C@@H]1C[C@@]2(C)C(=CC1=O)CC[C@H]1[C@@H]3CC[C@](O)(C(=O)CO)[C@@]3(C)C[C@H](O)[C@@]12F` .
5.8

Print Corticosteroid-binding globulin (Homo sapiens) (UniProt P08185) Log K for `C[C@]12CC[C@H]3[C@@H](CCC4=CC(=O)CC[C@@]43C)[C@@H]1CC[C@@H]2C(=O)CO` .
7.65
